# Tested on: Klebsiella aerogenes DSM 30053
# assay-explanation: fold change of Cadaverine concentration vs plate DMSO controls (fold change (ratio)); higher = more amine produced, active = hit call of the paper (significant change in both replicates, either direction)
# condition-label: 20 µM; incubation time: 27 h, anaerobic, 37 °C
Where a name gives a salt, the structure may show the parent alone.
Let's look at some compounds and their measured fold change of Cadaverine concentration.

# compound, fold change of Cadaverine concentration
measured = [
    ("CN1[C@@H]2CC[C@H]1C[C@@H](OC1c3ccccc3CCc3ccccc31)C2 [Deptropine citrate]", 0.999),
    ("c1cc2c3c(cccc3c1)CC2 [Acenaphthene]", 0.982),
    ("COc1ccc(C(CN(C)C)C2(O)CCCCC2)cc1 (centres undefined) [Venlafaxine]", 0.974),
    ("CN1C[C@H](CNC(=O)OCc2ccccc2)C[C@@H]2c3cccc4c3c(cn4C)C[C@H]21 [Metergoline]", 1),
    ("COc1ncc(F)c2nc(S(=O)(=O)Nc3c(F)cccc3F)nn12", 1.03),
    ("C[C@]12Cc3c[nH]nc3C[C@@H]1CC[C@@H]1[C@@H]2CC[C@@]2(C)[C@H]1CC[C@]2(C)O [Stanozolol]", 1.02),
    ("O=NN(CCO)CCO [DMNA (N-nitrosodiethanolamine)]", 1.03),
    ("Cc1cccc2sc3nncn3c12", 0.995),
    ("O=P1(N(CCCl)CCCl)NCCCO1 (centres undefined) [Cyclophosphamide]", 0.999),
    ("Cc1c(COC(=O)[C@@H]2[C@H](/C=C(\\Cl)C(F)(F)F)C2(C)C)cccc1-c1ccccc1 (racemic)", 0.989),
    ("COP(=S)(OC)Oc1ccc(SC)c(C)c1", 1.04),
    ("CCC(C)c1ccccc1OC(=O)NC (centres undefined)", 1),
    ("NCC1(CC(=O)O)CCCCC1 [Gabapentin]", 0.985),
    ("c1ccc2c(c1)-c1cccc3cccc-2c13 [Fluoranthene]", 0.976),
    ("CCCC1COC(Cn2cncn2)(c2ccc(Cl)cc2Cl)O1 (centres undefined)", 0.993),
    ("CCC(COC(=O)c1cc(OC)c(OC)c(OC)c1)(c1ccccc1)N(C)C (centres undefined) [Trimebutine]", 1.01),
    ("CC[C@@]1([C@@H]2O[C@@H]([C@H]3O[C@@](O)(CO)[C@H](C)C[C@@H]3C)C[C@@H]2C)CC[C@H]([C@]2(C)CC[C@]3(C[C@H](O)[C@@H](C)[C@@H]([C@@H](C)[C@@H](OC)[C@H](C)C(=O)O)O3)O2)O1 [Monensin sodium salt]", 0.999),
    ("CN1[C@@H]2CC[C@H]1C[C@@H](OC(=O)C(CO)c1ccccc1)C2 (some centres undefined) [Atropine sulfate monohydrate]", 1.02),
    ("CCCC(Cn1cncn1)c1ccc(Cl)cc1Cl (centres undefined)", 0.997),
]

###

# Test system: Klebsiella aerogenes DSM 30053
# assay-explanation: growth (OD595) fold change vs plate DMSO controls (fold change (ratio)); higher = more growth
# condition-label: 20 µM; incubation time: 27 h, anaerobic, 37 °C
Where a name gives a salt, the structure may show the parent alone.
result-type: growth

# compound, result-type, value-reported
data = [
    ("CC(C)(C)c1ccc(CSc2cnn(C(C)(C)C)c(=O)c2Cl)cc1", "growth", 1.01),
    ("CNC(=O)Oc1ccc2c(c1)[C@]1(C)CCN(C)[C@@H]1N2C [Eserine hemisulfate salt]", "growth", 0.988),
    ("Nc1c(Cl)c(F)nc(OCC(=O)O)c1Cl", "growth", 1.05),
]

###

# Tested on: Escherichia coli IAI1
# assay-explanation: fold change of Putrescine concentration vs plate DMSO controls (fold change (ratio)); higher = more amine produced, active = hit call of the paper (significant change in both replicates, either direction)
# condition-label: 20 µM; incubation time: 27 h, anaerobic, 37 °C
Respond with Satisfied for fold change of Putrescine concentration values of 1 and above, Not satisfied for values below.

# compound, target-under-test, group-label
measured = [
    ("Oc1ccccc1-c1ccccc1", "Escherichia coli IAI1", "Not satisfied"),
    ("COc1ccc(C(=CC(=O)N2CCOCC2)c2ccc(Cl)cc2)cc1OC (mixture of isomers)", "Escherichia coli IAI1", "Not satisfied"),
    ("C[N+]1(C)CCCC(OC(=O)C(O)(c2ccccc2)c2ccccc2)C1 (stereo not given) [Mepenzolate bromide]", "Escherichia coli IAI1", "Not satisfied"),
    ("N#CC(CCc1ccc(Cl)cc1)(Cn1cncn1)c1ccccc1 (stereo not given)", "Escherichia coli IAI1", "Satisfied"),
    ("CSc1nnc(C(C)(C)C)c(=O)n1N", "Escherichia coli IAI1", "Not satisfied"),
]

###

# Test system: Escherichia coli IAI1
# assay-explanation: fold change of Putrescine concentration vs plate DMSO controls (fold change (ratio)); higher = more amine produced, active = hit call of the paper (significant change in both replicates, either direction)
# condition-label: 20 µM; incubation time: 27 h, anaerobic, 37 °C
Where a name gives a salt, the structure may show the parent alone.
Respond with TRUE for fold change of Putrescine concentration values of 1 and above, FALSE for values below.

# compound, group-label
measured = [
    ("CN1C(=O)COc2c(C(=O)NC3CN4CCC3CC4)cc(Cl)cc21 (stereo not given) [Azasetron hydrochloride]", "FALSE"),
    ("C=CC[C@]1(O)CC[C@H]2[C@@H]3CCC4=CC(=O)CCC4=C3C=C[C@@]21C", "TRUE"),
    ("C[N+](C)(C)CCCl", "FALSE"),
    ("O=C(O)C(F)(F)C(F)(F)C(F)(F)C(F)(F)C(F)(F)C(F)(F)F", "TRUE"),
    ("CC(C)(C)NCC(O)c1ccccc1Cl (stereo not given) [Tulobuterol hydrochloride]", "TRUE"),
    ("CC1(C)C(C(=O)OC(C#N)c2cccc(Oc3ccccc3)c2)C1(C)C (stereo not given)", "FALSE"),
    ("CCCC(C)C1(CC)C(=O)NC(=O)NC1=O (stereo not given)", "TRUE"),
    ("O=[N+]([O-])c1ccc2ccc3cccc4ccc1c2c34", "TRUE"),
    ("C[C@]12CC[C@H](O)C[C@H]1CC[C@@H]1[C@@H]2C[C@@H](O)[C@]2(C)[C@@H](C3=CC(=O)OC3)CC[C@]12O", "TRUE"),
]

###

# Tested on: Escherichia coli IAI1
# assay-explanation: fold change of Putrescine concentration vs plate DMSO controls (fold change (ratio)); higher = more amine produced, active = hit call of the paper (significant change in both replicates, either direction)
# condition-label: 20 µM; incubation time: 27 h, anaerobic, 37 °C
Counter-ions that a name gives are not always drawn.

# compound, fold change of Putrescine concentration
measured = [
    ("C[C@]12CC[C@H](O)C[C@@H]1CC[C@@H]1[C@@H]2CC[C@]2(C)C(=O)CC[C@@H]12 [Epiandrosterone]", 0.99),
    ("C#CCN(C)[C@H](C)Cc1ccccc1 [Selegiline hydrochloride]", 1.07),
    ("COc1ccccc1N [o-Anisidine]", 1),
    ("CCNc1nc(Cl)nc(NC(C)C)n1", 0.961),
    ("NCCc1c[nH]c2ccc(O)cc12 [Serotonin hydrochloride]", 0.993),
]

###

Let's look at some compounds and their measured growth.
# System: Clostridium sporogenes DSM 1664
# assay-explanation: growth (OD595) fold change vs plate DMSO controls (fold change (ratio)); higher = more growth
# condition-label: 20 µM; incubation time: 27 h, anaerobic, 37 °C
Where a name gives a salt, the structure may show the parent alone.

# compound, growth
rows = [
    ("CCC(CC)Nc1c([N+](=O)[O-])cc(C)c(C)c1[N+](=O)[O-]", 1.11),
    ("NCCc1c[nH]c2ccc(O)cc12 [Serotonin hydrochloride]", 0.937),
    ("c1cc2ccc3cccc4ccc(c1)c2c34", 1.01),
    ("CSc1nc(NC(C)C)nc(NC(C)C)n1", 0.932),
    ("COC(=O)NC(=S)Nc1ccccc1NC(=S)NC(=O)OC", 1.11),
    ("CC(C)c1cccc(C(C)C)c1O", 1.24),
    ("CC(=O)O[C@H]1CC[C@@]2(C)C(=CC[C@@H]3[C@@H]2CC[C@]2(C)C(=O)CC[C@@H]32)C1 [Dehydroisoandosterone 3-acetate]", 0.905),
    ("CC1(C(=O)Nc2ccc(O)c(Cl)c2Cl)CCCCC1", 0.939),
    ("O=c1[nH]c2ccccc2n1C1CCN(CCCC(c2ccc(F)cc2)c2ccc(F)cc2)CC1 [Pimozide]", 1.41),
    ("C=CC(N)=O [Acrylamide]", 0.971),
    ("CC(O)(CS(=O)(=O)c1ccc(F)cc1)C(=O)Nc1ccc(C#N)c(C(F)(F)F)c1 (configuration not stated) [Bicalutamide]", 1.06),
    ("O=C1c2ccccc2C(=O)N1SC(Cl)(Cl)Cl", 1.06),
    ("COCC(=O)N(c1c(C)cccc1C)[C@H](C)C(=O)OC", 0.945),
    ("CC[C@@H](C(N)=O)N1CCCC1=O", 1.02),
    ("COc1ccc(OC)c(C(O)C(C)N)c1 (configuration not stated) [Methoxamine hydrochloride]", 0.777),
    ("CCC(=O)O[C@H]1CC[C@H]2[C@@H]3CCC4=CC(=O)CC[C@]4(C)[C@H]3CC[C@]12C [Testosterone propionate]", 1.02),
    ("COc1ccc(CCN2CCC(Nc3nc4ccccc4n3Cc3ccc(F)cc3)CC2)cc1", 1.26),
    ("C[N+]1([O-])[C@@H]2C[C@@H](OC(=O)[C@H](CO)c3ccccc3)C[C@H]1[C@@H]1O[C@@H]12 (some centres not stated) [Scopolamin-N-oxide hydrobromide]", 1.05),
    ("CCC(=O)Nc1ccc(Cl)c(Cl)c1", 0.942),
    ("Cc1nnc(-c2ccccc2)c(=O)n1N", 0.969),
    ("COP(=S)(OC)SCN1C(=O)c2ccccc2C1=O", 1.02),
    ("Cc1nc(N(C)C)nc(OC(=O)N(C)C)c1C", 1.02),
    ("O=C(NCNC(=O)NC1C(=O)NC(=O)N1CO)NC1C(=O)NC(=O)N1CO (configuration not stated)", 1.05),
    ("OCC(O)CCl (racemic)", 0.938),
    ("O=C1C2(Cl)C3(Cl)C4(Cl)C(Cl)(Cl)C5(Cl)C3(Cl)C1(Cl)C5(Cl)C24Cl (configuration not stated)", 0),
    ("CC(C)CC(C)c1sccc1NC(=O)c1cn(C)nc1C(F)(F)F (configuration not stated)", 1.03),
    ("O=c1c2ccccc2[se]n1-c1ccccc1", 1.02),
    ("Cc1cc(C(F)(C(F)(F)F)C(F)(F)F)ccc1NC(=O)c1cccc(I)c1C(=O)NC(C)(C)CS(C)(=O)=O", 1.23),
    ("Cc1ccc(/N=C/N(C)/C=N/c2ccc(C)cc2C)c(C)c1", 0.953),
    ("CCSC(C)CC1CC(=O)C(/C(CC)=N/OC/C=C/Cl)=C(O)C1 (mixture of isomers)", 0.928),
    ("O=[N+]([O-])/N=C1\\NCCN1Cc1ccc(Cl)nc1", 1.04),
    ("COCc1cnc(C2=NC(C)(C(C)C)C(=O)N2)c(C(=O)O)c1 (configuration not stated)", 1.1),
    ("C[C@]12C=CC(=O)C=C1CC[C@@H]1[C@@H]2CC[C@@]2(C)[C@H]1CC[C@]2(C)O", 1.01),
    ("Clc1ccc(C(c2ccc(Cl)cc2)C(Cl)(Cl)Cl)cc1", 0.984),
    ("CC1(C)CON(Cc2ccccc2Cl)C1=O", 0.972),
    ("CN1C[C@H](CNC(=O)OCc2ccccc2)C[C@@H]2c3cccc4c3c(cn4C)C[C@H]21", 1.1),
    ("CC(=O)NC1CCSC1=O (configuration not stated)", 1.15),
    ("c1ccc2c(c1)Nc1ccccc1S2", 1.09),
    ("CCc1cnc(C2=NC(C)(C(C)C)C(=O)N2)c(C(=O)O)c1 (configuration not stated)", 1),
    ("CNC(=O)/C=C(\\C)OP(=O)(OC)OC", 1.06),
    ("CCC(C)(C)C(=O)OC1=C(c2ccc(Cl)cc2Cl)C(=O)OC12CCCCC2", 1.09),
    ("CCOc1ccc(C(C)(C)COCc2cccc(Oc3ccccc3)c2)cc1", 1.14),
]

Source listed as the supplement of paper PMC12494721.
